Data credit: ChEMBL document CHEMBL3112395

tested on: Acinetobacter baumannii; assay: Antibacterial activity against Acinetobacter baumannii ATCC 19606 assessed as growth inhibition by broth dilution method; format: functional
experimental.endpoint: MIC

INSERT INTO results (smiles_code, measurement) VALUES
  ('CC[C@H](C)[C@@H](NC(=O)[C@@H](NC(=O)[C@H](CCC(=O)O)NC(=O)[C@H](Cc1ccccc1)NC(=O)[C@@H](CCN)NC(=O)[C@H](CCN)NC(=O)[C@H](CO)NC(=O)[C@@H](Cc1c[nH]c2ccccc12)NC(=O)[C@@H](CO)NC(=O)CNC(=O)[C@@H](CCN)NC(=O)[C@H](N)C(C)C)C(C)C)C(=O)N[C@@H](C)C(=O)O', '> 100 µg/mL'),
  ('CC[C@@H](C)CC[C@@H](O)CC(=O)N[C@@H](C(=O)N[C@H](CCN)C(=O)NCC(=O)N[C@H](CO)C(=O)N[C@H](Cc1c[nH]c2ccccc12)C(=O)N[C@@H](CO)C(=O)N[C@@H](CCN)C(=O)N[C@H](CCN)C(=O)N[C@@H](Cc1ccccc1)C(=O)N[C@@H](CCC(=O)O)C(=O)N[C@H](C(=O)N[C@@H](C(=O)N[C@@H](C)C(=O)O)[C@@H](C)CC)C(C)C)C(C)C', '12.5 µg/mL'),
  ('CCCCCCCCCCCCCCCC(=O)N[C@@H](C(=O)N[C@H](CCN)C(=O)NCC(=O)N[C@H](CO)C(=O)N[C@H](Cc1c[nH]c2ccccc12)C(=O)N[C@@H](CO)C(=O)N[C@@H](CCN)C(=O)N[C@H](CCN)C(=O)N[C@@H](Cc1ccccc1)C(=O)N[C@@H](CCC(=O)O)C(=O)N[C@H](C(=O)N[C@@H](C(=O)N[C@@H](C)C(=O)O)[C@@H](C)CC)C(C)C)C(C)C', '> 100 µg/mL');

----------
system: Acinetobacter baumannii; experiment: Antibacterial activity against Acinetobacter baumannii ATCC 19606 assessed as growth inhibition by broth dilution method; assay type: functional
experimental.endpoint: MIC (µg/mL)

INSERT INTO results (smiles_code, tested_target, inequality_sign, measurement) VALUES
  ('CC[C@H](C)[C@@H](NC(=O)[C@@H](NC(=O)[C@H](CCC(=O)O)NC(=O)[C@H](Cc1ccccc1)NC(=O)[C@@H](CCN)NC(=O)[C@H](CCN)NC(=O)[C@H](CO)NC(=O)[C@@H](Cc1c[nH]c2ccccc12)NC(=O)[C@@H](CO)NC(=O)CNC(=O)[C@@H](CCN)NC(=O)[C@H](NC(=O)COCCOCCOC)C(C)C)C(C)C)C(=O)N[C@@H](C)C(=O)O', 'Acinetobacter baumannii', '>', 100),
  ('CCCCCCCCCCCC(=O)N[C@@H](C(=O)N[C@H](CCN)C(=O)NCC(=O)N[C@H](CO)C(=O)N[C@H](Cc1c[nH]c2ccccc12)C(=O)N[C@@H](CO)C(=O)N[C@@H](CCN)C(=O)N[C@H](CCN)C(=O)N[C@@H](Cc1ccccc1)C(=O)N[C@@H](CCC(=O)O)C(=O)N[C@H](C(=O)N[C@@H](C(=O)N[C@@H](C)C(=O)O)[C@@H](C)CC)C(C)C)C(C)C', 'Acinetobacter baumannii', '=', 50);
